Data credit: patent US11718626B2

target-entity: Human Factor D (purified from human serum) (Homo sapiens (Human))
Sequence (P00746 26-253): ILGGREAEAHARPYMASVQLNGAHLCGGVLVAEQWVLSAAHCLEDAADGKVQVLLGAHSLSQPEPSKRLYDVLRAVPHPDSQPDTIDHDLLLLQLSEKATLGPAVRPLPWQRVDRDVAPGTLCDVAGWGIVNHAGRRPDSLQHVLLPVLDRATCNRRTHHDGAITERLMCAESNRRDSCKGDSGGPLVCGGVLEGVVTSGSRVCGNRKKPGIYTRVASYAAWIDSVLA
assay-method-text: Human Factor D Assay
Type: biochemical
measurement-conditions: Human Factor D 80 nM, substrate Z-L-Lys-SBzl; Table 6; read-out: IC50
Protocol: The assay of Example 2 was used to determine the IC50's of the compounds. Other standard Factor D inhibition assays are also available. Human Factor D (purified from human serum, Complement Technology, Inc.) at 80 nM final concentration is incubated with test compound at various concentrations for 5 min at room temperature in 50 mM Tris, 1M NaCl, pH 7.5. […] Absorbance at 405 nm (A405) is recorded at 30 second intervals for 30 minutes using a microplate spectrophotometer. […]
Item-by-item account of IC50

Recorded IC50, per entry:
>>> df
                        structure_as_smiles                             target_entity  result
0  CC(=O)c1nn2c3c(cc(-c4cnc(C)cn4)cc13)CC=CCCCC(=O)NC[C@@]13C[C@@H](C(=O)Nc4nc(C(F)(F)F)ccc4C)N(C(=O)C2)[C@@H]1C3  Human Factor D (purified from human serum) (Homo sapiens (Human))  < 1 µM
1  CC(=O)c1nn2c3c(cc(-c4cnc(C)nc4)cc13)CCCCCCC(=O)NC[C@@]13C[C@@H](C(=O)Nc4nc(Br)ccc4F)N(C(=O)C2)[C@@H]1C3  Human Factor D (purified from human serum) (Homo sapiens (Human))  < 1 µM

Here is the next item to consider.
## Task Look up IC50: CC(=O)c1nn2c3c(cc(-c4cnc(C)nc4)cc13)CCCCCCC(=O)NC[C@@]13C[C@@H](C(=O)Nc4cc(Br)ccc4C4CC4)N(C(=O)C2)[C@@H]1C3
## Result < 1 µM
